B1: Chromodomain-helicase-DNA-binding protein 5, residues 411 to 463; numbered along this chain, Q8TDI0 (parent)
chain: EEDDHMEFCRVCKDGGELLCCDACPSSYHLHCLNPPLPEIPNGEWLCPRCTCP

Variants of: B1
Assay: abundance fitness (aPCA) (normalised: wild type 0, dead -1); higher = more abundant; growth selection in yeast, the domain comes from the species named
Conditions: Homo sapiens
Binned abundance fitness; ranges: category 1 = under -0.3, category 2 = from -0.3 up to 0.005, category 3 = 0.005 and over

| MUTATION KEY | DISCRETE LABEL |
| --- | --- |
| T51Q | category 3 |
| S26Q | category 1 |
| P25V | category 3 |
| E44Q | category 3 |
| L18G | category 1 |
| H29T | category 1 |
| R49N | category 3 |
| N34W | category 2 |
| G43C | category 2 |
| L30V | category 3 |
| P38M | category 1 |
| R49Y | category 2 |
| A23D | category 2 |
| Y28H | category 1 |
| S26V | category 3 |
| C20F | category 2 |
| P35S | category 2 |
| C32A | category 1 |
| L33D | category 1 |
| C21M | category 1 |
| G43F | category 3 |
